biological target: UniProt:P0DMS8; assay: Agonist activity at human adenosine A3 receptor expressed in FlpIn-CHO cells assessed as inhibition of forskolin-mediated cAMP accumulation preincubated for 10 mins followed by forskolin addition measured after 30 mins by alphascreen assay relative to control; type: functional, cell-based
Sequence (P0DMS8 whole entry): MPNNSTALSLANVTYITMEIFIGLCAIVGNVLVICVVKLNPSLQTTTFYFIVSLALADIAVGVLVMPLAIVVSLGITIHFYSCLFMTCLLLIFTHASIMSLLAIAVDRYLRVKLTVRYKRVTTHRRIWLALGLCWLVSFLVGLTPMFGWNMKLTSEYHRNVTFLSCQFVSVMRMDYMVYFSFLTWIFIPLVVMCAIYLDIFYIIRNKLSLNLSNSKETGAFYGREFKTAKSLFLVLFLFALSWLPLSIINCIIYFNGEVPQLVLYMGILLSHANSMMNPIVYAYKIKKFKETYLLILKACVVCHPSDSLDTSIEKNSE
MEASUREMENT_LABEL: Emax (%)

INSERT INTO results (input_smiles, value) VALUES
  ('CNC(=O)[C@@]12C[C@@H]1[C@@H](n1cnc3c(NCc4cccc(Cl)c4)nc(C#Cc4ccccc4)nc31)[C@H](O)[C@@H]2O', 78),
  ('CNC(=O)[C@@]12C[C@@H]1[C@@H](n1cnc3c(NCc4cccc(Cl)c4)nc(C#Cc4ccc5ccc6cccc7ccc4c5c67)nc31)[C@H](O)[C@@H]2O', 70),
  ('CNC(=O)[C@@]12C[C@@H]1[C@@H](n1cnc3c(NCc4cccc(Cl)c4)nc(C#Cc4cc5cccc6ccc7cccc4c7c65)nc31)[C@H](O)[C@@H]2O', 78),
  ('CNC(=O)[C@H]1O[C@@H](n2cnc3c(NCc4cccc(I)c4)ncnc32)[C@H](O)[C@@H]1O', 72);
